Data origin: PubChem BioAssay (NCI)

For each entry below, report its growth inhibition value.
# PROCEDURE_DETAILS: NCI Yeast Anticancer Drug Screen. Data for the sgs1 mgt1 strain (AID 161);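 further: 0% = growth of cultures given vehicle only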
# TEST_PARAMETERS: S. cerevisiae sgs1 mgt1 strain, at 5.0 µM (retest, dose inferred, filed as 0.5), hits give high values
# Method: Growth inhibition of yeast strains with defined genetic alterations is measured as a screen for potential anti-cancer activity. Selected strains with alterations in DNA damage repair or cell cycle control were exposed to compounds and growth inhibition was measured relative to vehicle treated controls. The strain used in this assay is sgs1 mgt1
The panel holds about 79,000 compounds, 15% with a hit somewhere; the sample as a whole holds those more often.
Numbers only, in %.

Which value of growth inhibition has been reported for COC1CCCCC1C(=O)C(C#N)C1CCCCC1C1CCCCC1 (stereo not drawn) in the records?
7

Your task in this section: give growth inhibition for each listed record.
1. CCCCN(CCCC)CCC(O)c1cc2c(c3ccccc13)CCCC2 (stereo not drawn)
2. O=C(Cn1nnc2ccccc21)N1CCN(c2ccccc2)CC1
3. O=C(CCCCCCCCCCc1ccccc1)c1c(O)cccc1O
4. CC(=O)OC[C@@H](OC(C)=O)[C@H](OC(C)=O)c1cnn(-c2ccccc2)n1
5. Oc1c(Cl)cc(Cl)cc1C=Nc1cc(C(F)(F)F)ccc1Cl
6. O=c1c2ccccc2[nH]c2c1[nH]c1ccccc12

[10, -1, 45, -4, 46, 5]

Your task in this section: give growth inhibition for each listed record.
1. O=C1C(=O)C(Br)(c2ccccc2)C(=O)C1c1ccccc1 (stereo not drawn)
2. O=C(/C=C(/Nc1ccccc1)C(=O)c1ccccc1)c1ccccc1

1: -19; 2: 8

Your task in this section: give growth inhibition for each listed record.
1. O=C1OS(=O)(=O)c2cc3c(cc21)C1C(C2C3C3(Cl)C(Cl)=C(Cl)C2(Cl)C3(Cl)Cl)C2(Cl)C(Cl)=C(Cl)C1(Cl)C2(Cl)Cl (stereo not drawn)
2. Nc1ccccc1Sc1ccc(F)cc1[N+](=O)[O-]
3. NC(=O)C1C(=O)c2cccc3c2C1(Br)C(Br)CCC3 (stereo not drawn)
4. CCCCCCCCCCCCCCCCn1cc(C(O)CN(C)C)c2ccccc21 (stereo not drawn)
5. COc1ccc2nc3cc(Cl)ccc3c(NCCCN(Cc3cc(OC)c(OC)c(OC)c3)Cc3cc(OC)c(OC)c(OC)c3)c2c1
6. CN(C)CC(=O)OCC[N+](C)(C)C
7. c1ccc2c(B(c3cccc4ccccc34)c3cccc4ccccc34)cccc2c1
8. CCCCCCCOC(=O)CSC#N

1. 55
2. 2
3. 26
4. -1
5. 38
6. -3
7. -20
8. 95

Your task in this section: give growth inhibition for each listed record.
1. CC(C)C(OC(=O)c1ccc(NCC2=CC(=O)C=CC2=O)cc1)C(C)C
2. Cc1cnc(Sc2c([N+](=O)[O-])ncn2C)nc1
3. O=C(C[n+]1ccccc1Cl)c1ccc(F)cc1
4. COc1cc(C(c2cc3c(cc2O)OCO3)N2CCOCC2)ccc1O (stereo not drawn)
5. CS(=O)(=O)OCCN(CCOS(C)(=O)=O)c1ccc(N=Nc2ccccc2)cc1
6. Cc1nc(-c2cccc(Cl)c2)oc1-c1ccccc1
7. CCOC(=O)N(c1ccccc1)N(CC)C(=O)/C(C)=N/Nc1ccc([N+](=O)[O-])cc1
8. COC(=O)C1=C(/C=C/C(C)=O)NC(C)=C(C(=O)OC(C)C)C1c1ccccc1Cl (stereo not drawn)

1: 23; 2: 3; 3: -1; 4: -2; 5: 52; 6: 17; 7: 9; 8: 37
